Assay type: physicochemical
run.conditions: 1:1 MeOH:0.1 N NaOH
recorded.endpoint: half-life at 30 mM (h)

(a) CC(C)(C)C(=O)OC1(N=O)CCOCC1 [Compound 5]
(b) CC(=O)OC1(N=O)CCOCC1 [Compound 4]
### Prompt Of a and b , whose reported half-life at 30 mM is numerically smaller? Response format: the label of the selected entry.
### Response b

* * *

assay: Kinetic UV-vis decomposition in the presence of glutathione
Type: physicochemical
run.conditions: PBS pH 7.4 + 2-fold GSH, room temperature
recorded.endpoint: t1/2 (min) in PBS + 2-fold GSH

### Prompt Name the recorded t1/2 (min) in PBS + 2-fold GSH of the compound listed here: "CC(C)(C)C(=O)OC1(N=O)CCOCC1"
### Response 99

(a) CC(Cl)(Cl)C(=O)OC1(N=O)CCOCC1
(b) CC(=O)OC1(N=O)CCOCC1
### Prompt Which value of t1/2 (min) in PBS + 2-fold GSH is smaller, the one for a or the one for b ? Use the label to indicate which entry you chose.
### Response a

* * *

Assay type: physicochemical
run.conditions: 1:1 MeOH:phosphate buffered saline, pH 7.4
recorded.endpoint: half-life at 30 mM (h)

### Prompt Tell us which half-life at 30 mM value is on record for "CC(C)(C)C(=O)OC1(N=O)CCOCC1"
### Response 31.7

### Prompt Give half-life at 30 mM for the following molecule: "O=NC1(OC(=O)C(Cl)(Cl)Cl)CCOCC1"
### Response 0.833

(A) CC(=O)OC1(N=O)CCOCC1
(B) CC(Cl)(Cl)C(=O)OC1(N=O)CCOCC1
### Prompt Dear colleague, could you let me know whether A or B has the lower recorded half-life at 30 mM? Thanks. Which one? Tell me its label.
### Response B
(B: 2 h, A: 13 h)

* * *

Type: physicochemical
run.conditions: decomposition, 1:1 MeOH:PBS (100 mM, pH 7.4), room temperature
recorded.endpoint: k (min^−1) in 1:1 MeOH : PBS (min⁻¹)
# unit: min⁻¹ | format: bare number

Some entries whose results are on file:
### Prompt Please report k (min^−1) in 1:1 MeOH : PBS for the following compound: "CC(Cl)(Cl)C(=O)OC1(N=O)CCOCC1"
### Response 0.0058

### Prompt Kindly indicate its recorded k (min^−1) in 1:1 MeOH : PBS. Item: "O=NC1(OC(=O)C(Cl)(Cl)Cl)CCOCC1"
### Response 0.014

### Prompt Give k (min^−1) in 1:1 MeOH : PBS for the following compound: "CC(=O)OC1(N=O)CCOCC1"
### Response 0.00089

With those in mind, consider the next compound.
### Prompt Answer with the recorded k (min^−1) in 1:1 MeOH : PBS for the compound listed here: "CC(C)(C)C(=O)OC1(N=O)CCOCC1"
### Response 0.00036
